experiment: Kinetic solubility in PBS (HPLC solubility assay); conditions: aqueous buffer, kinetic from dmso stock, solubility in PBS, kinetic solubility, HPLC solubility assay
Could you please report measured solubility for the items listed next?

smiles.notation	val
CCOC(=O)[C@H](CCC(=O)NCCOCCOCCNC(=O)CSc1nc2c([nH]c3ccccc32)c(=O)n1-c1ccccc1)NC(=O)[C@H](NC(=O)CNC(=O)/C=C/c1ccc(O)c(OC)c1)C(C)C	238 µM
CCOC(=O)[C@H](CCC(=O)NCCCCCCNC(=O)CSc1nc2c([nH]c3ccccc32)c(=O)n1-c1ccccc1)NC(=O)[C@H](NC(=O)CNC(=O)/C=C/c1ccc(O)c(OC)c1)C(C)C	80 µM
CCOC(=O)[C@@H](CCC(=O)NCCCOCCOCCOCCCNC(=O)CSc1nc2c([nH]c3ccccc32)c(=O)n1-c1ccccc1)NC(=O)[C@@H](NC(=O)CNC(=O)/C=C/c1ccc(O)c(OC)c1)C(C)C	122 µM
CCOC(=O)[C@H](CCC(=O)N1CCC(CN2CCN(C(=O)CSc3nc4c([nH]c5ccccc54)c(=O)n3-c3ccccc3)CC2)CC1)NC(=O)[C@H](NC(=O)CNC(=O)/C=C/c1ccc(O)c(OC)c1)C(C)C	6.68 µM

Turning to the following compound.
In one line, give reported solubility of the entry CCOC(=O)[C@H](CCC(=O)NCCNC(=O)CSc1nc2c([nH]c3ccccc32)c(=O)n1-c1ccccc1)NC(=O)[C@H](NC(=O)CNC(=O)/C=C/c1ccc(O)c(OC)c1)C(C)C .
310 µM

* * *

target: NOD2 (Homo sapiens); experiment: NOD2 NF-κB SEAP reporter assay in HEK-Blue hNOD2 cells; settings: 10 μM, 18 h, NF-κB transcriptional activity (SEAP) relative to 0.1% DMSO
Sequence (Q9HC29 whole entry): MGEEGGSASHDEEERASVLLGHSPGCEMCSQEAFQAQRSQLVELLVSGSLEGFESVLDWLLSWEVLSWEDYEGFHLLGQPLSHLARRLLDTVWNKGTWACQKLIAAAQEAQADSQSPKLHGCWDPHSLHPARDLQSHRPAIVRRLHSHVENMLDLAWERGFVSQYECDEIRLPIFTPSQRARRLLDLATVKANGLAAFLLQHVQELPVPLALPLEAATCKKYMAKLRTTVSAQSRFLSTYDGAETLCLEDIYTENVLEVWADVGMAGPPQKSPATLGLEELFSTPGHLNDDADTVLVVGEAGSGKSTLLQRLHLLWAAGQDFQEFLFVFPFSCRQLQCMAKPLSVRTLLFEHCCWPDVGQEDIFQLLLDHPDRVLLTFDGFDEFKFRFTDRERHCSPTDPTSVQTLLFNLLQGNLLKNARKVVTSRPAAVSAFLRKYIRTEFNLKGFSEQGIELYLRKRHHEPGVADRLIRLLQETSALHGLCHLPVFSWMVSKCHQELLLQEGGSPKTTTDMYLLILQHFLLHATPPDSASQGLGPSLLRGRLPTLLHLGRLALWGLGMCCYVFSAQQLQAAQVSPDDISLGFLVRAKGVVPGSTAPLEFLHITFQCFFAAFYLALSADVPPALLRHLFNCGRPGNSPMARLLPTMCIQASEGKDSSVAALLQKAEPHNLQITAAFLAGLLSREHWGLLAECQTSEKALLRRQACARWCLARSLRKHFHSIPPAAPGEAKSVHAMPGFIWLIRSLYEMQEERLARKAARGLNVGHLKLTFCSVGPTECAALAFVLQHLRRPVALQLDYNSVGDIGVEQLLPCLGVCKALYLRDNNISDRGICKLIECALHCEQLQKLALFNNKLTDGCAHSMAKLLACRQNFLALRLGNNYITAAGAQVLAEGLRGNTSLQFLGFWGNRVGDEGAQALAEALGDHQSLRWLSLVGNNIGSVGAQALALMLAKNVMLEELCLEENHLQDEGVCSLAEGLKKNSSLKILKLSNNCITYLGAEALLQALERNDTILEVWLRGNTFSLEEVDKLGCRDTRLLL
metric.name: NOD2 activation at 10 μM, fold increase (fold increase)
Answers are plain numbers, in fold increase.

molecule	metric.name	val
CCOC(=O)[C@H](CCC(=O)NCCOCCOCCNC(=O)Cc1ccc(C(C(=O)NC2CCCC2)N(C(=O)c2cc(-c3ccccc3)n(-c3ccccc3)n2)c2ccc3c(c2)CCC3)cc1)NC(=O)[C@H](NC(=O)CNC(=O)/C=C/c1ccc(O)c(OC)c1)C(C)C (stereo partly drawn) [Compound 19]	NOD2 activation at 10 μM, fold increase	3.06
CCOC(=O)[C@H](CCC(=O)NCCCCCCNC(=O)Cc1ccc(C(C(=O)NC2CCCC2)N(C(=O)c2cc(-c3ccccc3)n(-c3ccccc3)n2)c2ccc3c(c2)CCC3)cc1)NC(=O)[C@@H](NC(=O)CNC(=O)/C=C/c1ccc(O)c(OC)c1)C(C)C (stereo partly drawn) [Compound 18]	NOD2 activation at 10 μM, fold increase	2.43
CCOC(=O)[C@H](CCC(=O)NCCOCCOCCNC(=O)CSc1nc2c([nH]c3ccccc32)c(=O)n1-c1ccccc1)NC(=O)[C@H](NC(=O)CNC(=O)/C=C/c1ccc(O)c(OC)c1)C(C)C [Compound 29]	NOD2 activation at 10 μM, fold increase	1.60
CCOC(=O)[C@@H](CCC(=O)NCCCOCCOCCOCCCNC(=O)Cc1ccc(C(C(=O)NC2CCCC2)N(C(=O)c2cc(-c3ccccc3)n(-c3ccccc3)n2)c2ccc3c(c2)CCC3)cc1)NC(=O)[C@@H](NC(=O)CNC(=O)/C=C/c1ccc(O)c(OC)c1)C(C)C (stereo partly drawn) [Compound 20]	NOD2 activation at 10 μM, fold increase	3.53
CCOC(=O)[C@H](CCC(=O)NCCCCCCNC(=O)CSc1nc2c([nH]c3ccccc32)c(=O)n1-c1ccccc1)NC(=O)[C@H](NC(=O)CNC(=O)/C=C/c1ccc(O)c(OC)c1)C(C)C [Compound 28]	NOD2 activation at 10 μM, fold increase	1.65

Turning to the following molecule.
Give NOD2 (Homo sapiens) NOD2 activation at 10 μM, fold increase for the following molecule: CCOC(=O)[C@H](CCC(=O)NCCNC(=O)Cc1ccc(C(C(=O)NC2CCCC2)N(C(=O)c2cc(-c3ccccc3)n(-c3ccccc3)n2)c2ccc3c(c2)CCC3)cc1)NC(=O)[C@@H](NC(=O)CNC(=O)/C=C/c1ccc(O)c(OC)c1)C(C)C (stereo partly drawn) [Compound 17]
3.66

* * *

Could you please report measured TLR4 activation at 10 μM, fold increase for the items listed next?
biological target: TLR4 (Homo sapiens, UniProt O00206+Q9Y6Y9); test: TLR4 NF-κB SEAP reporter assay in HEK-Blue hTLR4 cells; details: 10 μM, 18 h, NF-κB transcriptional activity (SEAP) relative to 0.1% DMSO
Sequence (O00206 24-839): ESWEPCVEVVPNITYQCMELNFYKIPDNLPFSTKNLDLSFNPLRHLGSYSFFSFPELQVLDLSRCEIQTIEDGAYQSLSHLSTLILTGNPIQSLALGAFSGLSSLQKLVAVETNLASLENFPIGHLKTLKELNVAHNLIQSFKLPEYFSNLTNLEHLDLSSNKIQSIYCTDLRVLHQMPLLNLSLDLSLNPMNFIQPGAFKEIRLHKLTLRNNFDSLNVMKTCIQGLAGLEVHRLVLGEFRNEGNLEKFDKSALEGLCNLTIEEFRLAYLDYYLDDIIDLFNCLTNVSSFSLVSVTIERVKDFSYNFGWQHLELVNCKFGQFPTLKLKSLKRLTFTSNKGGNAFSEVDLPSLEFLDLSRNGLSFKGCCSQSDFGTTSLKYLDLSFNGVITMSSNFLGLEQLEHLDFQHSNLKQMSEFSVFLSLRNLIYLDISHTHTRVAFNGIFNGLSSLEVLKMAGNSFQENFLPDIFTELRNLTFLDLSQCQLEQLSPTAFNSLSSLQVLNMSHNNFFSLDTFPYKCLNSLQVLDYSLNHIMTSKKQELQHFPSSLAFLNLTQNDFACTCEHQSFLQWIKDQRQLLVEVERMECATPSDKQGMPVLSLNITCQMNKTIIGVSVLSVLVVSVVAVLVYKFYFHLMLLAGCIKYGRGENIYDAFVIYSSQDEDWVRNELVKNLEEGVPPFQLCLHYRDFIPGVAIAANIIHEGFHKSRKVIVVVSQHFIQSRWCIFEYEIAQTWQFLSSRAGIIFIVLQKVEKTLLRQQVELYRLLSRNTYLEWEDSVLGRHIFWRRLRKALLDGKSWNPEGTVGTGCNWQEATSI
Sequence (Q9Y6Y9 17-160 limits assumed): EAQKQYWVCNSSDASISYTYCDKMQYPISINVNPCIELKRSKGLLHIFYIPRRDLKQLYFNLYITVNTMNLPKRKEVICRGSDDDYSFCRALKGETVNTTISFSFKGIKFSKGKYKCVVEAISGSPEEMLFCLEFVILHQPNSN
Number first, unit second: that is the form wanted.

The following compounds have reported results that may help.
compound	target	TLR4 activation at 10 μM, fold increase
O=C(O)Cc1ccc(C(C(=O)NC2CCCC2)N(C(=O)c2cc(-c3ccccc3)n(-c3ccccc3)n2)c2ccc3c(c2)CCC3)cc1 (stereo not drawn) [Compound 4, reference compound]	TLR4 (Homo sapiens, UniProt O00206+Q9Y6Y9)	7.23 fold increase
CCOC(=O)[C@H](CCC(=O)NCCOCCOCCNC(=O)Cc1ccc(C(C(=O)NC2CCCC2)N(C(=O)c2cc(-c3ccccc3)n(-c3ccccc3)n2)c2ccc3c(c2)CCC3)cc1)NC(=O)[C@H](NC(=O)CNC(=O)/C=C/c1ccc(O)c(OC)c1)C(C)C (stereo partly drawn) [Compound 19]	TLR4 (Homo sapiens, UniProt O00206+Q9Y6Y9)	2.78 fold increase

Turning to the following compound.
In one line, give reported TLR4 activation at 10 μM, fold increase of the entry CCOC(=O)[C@H](CCC(=O)NCCCCCCNC(=O)CSc1nc2c([nH]c3ccccc32)c(=O)n1-c1ccccc1)NC(=O)[C@H](NC(=O)CNC(=O)/C=C/c1ccc(O)c(OC)c1)C(C)C [Compound 28] .
1.06 fold increase

* * *

test: Kinetic solubility in PBS (HPLC solubility assay); conditions: PBS, aqueous buffer, kinetic from dmso stock, solubility in PBS, kinetic solubility, HPLC solubility assay
metric.name: solubility
Number first, unit second: that is the form wanted.

The following molecules have reported results that may help.
molecule	val
CCOC(=O)[C@@H](CCC(=O)NCCCOCCOCCOCCCNC(=O)Cc1ccc(C(C(=O)NC2CCCC2)N(C(=O)c2cc(-c3ccccc3)n(-c3ccccc3)n2)c2ccc3c(c2)CCC3)cc1)NC(=O)[C@@H](NC(=O)CNC(=O)/C=C/c1ccc(O)c(OC)c1)C(C)C (stereo partly drawn)	1.5 µM
CCOC(=O)[C@H](CCC(=O)NCCNC(=O)Cc1ccc(C(C(=O)NC2CCCC2)N(C(=O)c2cc(-c3ccccc3)n(-c3ccccc3)n2)c2ccc3c(c2)CCC3)cc1)NC(=O)[C@@H](NC(=O)CNC(=O)/C=C/c1ccc(O)c(OC)c1)C(C)C (stereo partly drawn)	0.76 µM
O=C(O)CSc1nc2c([nH]c3ccccc32)c(=O)n1-c1ccccc1 [Compound 6, reference compound]	254 µM
COc1cc(/C=C/C(=O)NCC(=O)N[C@H](C(=O)N[C@H](CCC(=O)OC2CCCC2)C(=O)OC2CCCC2)C(C)C)ccc1OC(=O)CCCCCNC(=O)CSc1nc2c([nH]c3ccccc32)c(=O)n1-c1ccccc1 [Compound 2, reference compound]	0.35 µM

Dear colleague, could you please provide solubility for the molecules listed below?
1. O=C(O)Cc1ccc(C(C(=O)NC2CCCC2)N(C(=O)c2cc(-c3ccccc3)n(-c3ccccc3)n2)c2ccc3c(c2)CCC3)cc1 (stereo not drawn) [Compound 4, reference compound]
2. CCOC(=O)[C@H](CCC(=O)NCCOCCOCCNC(=O)Cc1ccc(C(C(=O)NC2CCCC2)N(C(=O)c2cc(-c3ccccc3)n(-c3ccccc3)n2)c2ccc3c(c2)CCC3)cc1)NC(=O)[C@H](NC(=O)CNC(=O)/C=C/c1ccc(O)c(OC)c1)C(C)C (stereo partly drawn)

1. 238 µM
2. 2.14 µM
